Tested on: K562
test-description: MTS cytotoxicity assay, 72 h
Format: cell-based
condition-label: Homo sapiens, K562, 72 h, read-out: IC50 K562
measured-endpoint: pIC50
# pIC50 = -log10(concentration in molar units)

Below: 4 molecules and their reported pIC50.
COc1cc(C2=C3C(C)=CC(C)=[N+]3[B-](F)(F)n3c(C)cc(C)c32)ccc1OCc1cn([C@H]2CCc3cc(OC)c(OC)c(OC)c3-c3ccc(OC)c(=O)cc32)nn1	7.59
COc1cc(C2=C3C(C)=CC(C)=[N+]3[B-](F)(F)n3c(C)cc(C)c32)ccc1OCc1cn([C@H]2CCc3cc(OC)c(OC)c(OC)c3-c3ccc(OC)c(=O)cc32)n[n+]1C	5.11
COc1cc2c(c(OC)c1OC)-c1ccc(N(C)CCCCC3=C4C(C)=CC(C)=[N+]4[B-](F)(F)n4c(C)cc(C)c43)c(=O)cc1[C@@H](NC(C)=O)CC2	5.73
COc1cc2c(c(OC)c1OC)-c1ccc(NCCCCC3=C4C(C)=CC(C)=[N+]4[B-](F)(F)n4c(C)cc(C)c43)c(=O)cc1[C@@H](NC(C)=O)CC2	4.97

Summary for this molecule, "COc1cc2c(c(OC)c1OC)-c1ccc(N(C)C(=O)CCC3=C4C(C)=CC(C)=[N+]4[B-](F)(F)n4c(C)cc(C)c43)c(=O)cc1[C@@H](NC(C)=O)CC2" : pIC50 is 5.37

Provenance of the data: paper PMC12261228
